assay: The drug is tested on Z-025 corresponding to rabbit gut metagenome with ENA study accession number: PRJEB37062 and ENA sample accession number: ERS12561824 for biotransformation under anaerobic condition. The drug concentrations were measured over 9 timepoints collected between 0 and 24 hours of incubation by liquid-chromatography-coupled mass spectrometry (LC–MS); details: 2 µM; further: call rule not given here
measured_metric: Bacterial Biotransformation

Solved entries:
CC(Oc1c(Cl)cccc1Cl)C1=NCCN1 (stereo not drawn) [LOFEXIDINE] = Compound NOT metabolized
CN(C)CCC=C1c2ccccc2C=Cc2ccccc21 [CYCLOBENZAPRINE] = Compound metabolized
O=C1[C@H](CC[C@H](O)c2ccc(F)cc2)[C@@H](c2ccc(O)cc2)N1c1ccc(F)cc1 [EZETIMIBE] = Compound NOT metabolized
C=CCN1CC[C@]23c4c5ccc(O)c4O[C@H]2C(=O)CC[C@@]3(O)[C@H]1C5 [NALOXONE] = Compound NOT metabolized
COc1c(C)c2c(c(O)c1C/C=C(\C)CCC(=O)OCCN1CCOCC1)C(=O)OC2 [MYCOPHENOLATE MOFETIL] = Compound metabolized

Using the record for CC(CN(C)C)CN1c2ccccc2CCc2ccccc21.O=C(O)/C=C\C(=O)O (stereo not drawn) [TRIMIPRAMINE MALEATE] , report its Bacterial Biotransformation.
Compound NOT metabolized

Which Bacterial Biotransformation value belongs to CCCCC1=NC2(CCCC2)C(=O)N1Cc1ccc(-c2ccccc2-c2nnn[nH]2)cc1 [IRBESARTAN] ?
Compound NOT metabolized

Returns the measured Bacterial Biotransformation for the input compound. Input: CCc1nn(CCCN2CCN(c3cccc(Cl)c3)CC2)c(=O)n1CCOc1ccccc1 [NEFAZODONE]
Compound NOT metabolized

---

test: The drug is tested on Z-017 corresponding to mouse gut metagenome with ENA study accession number: PRJEB37062 and ENA sample accession number: ERS12561816 for biotransformation under anaerobic condition. The drug concentrations were measured over 9 timepoints collected between 0 and 24 hours of incubation by liquid-chromatography-coupled mass spectrometry (LC–MS); details: 2 µM
Where a SMILES comes first, the peptide text is derived from it. [ ]: non-standard residue; d: D form. pGlu = O=C1CC[C@@H](C(=O)O)N1; Thz = O=C(O)[C@@H]1CSCN1
measured_metric: Bacterial Biotransformation

In the examples that follow, each entry is paired with its recorded Bacterial Biotransformation.
COC(=O)Nc1nc2ccc(C(=O)c3ccccc3)cc2[nH]1 [MEBENDAZOLE] = Compound NOT metabolized
CNCCC(Oc1ccc(C(F)(F)F)cc1)c1ccccc1 (stereo not given) [FLUOXETINE] = Compound NOT metabolized
O=C1CC[C@@H](C(=O)N2CSC[C@H]2C(=O)O)N1 [PIDOTIMOD] ([pGlu]-[Thz]-OH) = Compound NOT metabolized
O=P(O)(O)O.c1ccc(CN(CC2=NCCN2)c2ccccc2)cc1 [ANTAZOLINE PHOSPHATE] = Compound NOT metabolized
O=c1[nH]c2ccccc2n1C1CCN(CCCC(c2ccc(F)cc2)c2ccc(F)cc2)CC1 [PIMOZIDE] = Compound metabolized
Cc1ccc(S(=O)(=O)NC(=O)NN2CCCCCC2)cc1 [TOLAZAMIDE] = Compound NOT metabolized
CN(C)CC(c1ccc(O)cc1)C1(O)CCCCC1.O=C(O)CCC(=O)O (stereo not given) [DESVENLAFAXINE SUCCINATE] = Compound NOT metabolized
CCc1nc(N)nc(N)c1-c1ccc(Cl)cc1 [PYRIMETHAMINE] = Compound NOT metabolized

Given the compound O=C1NCC2(CCN(CCc3ccccc3)CC2)O1 [FENSPIRIDE] , what is its reported Bacterial Biotransformation?
Compound NOT metabolized

Bench note: what Bacterial Biotransformation did CN1C(=O)CC(C)(c2ccccc2)C1=O (stereo not given) [METHSUXIMIDE] show?
Compound NOT metabolized

What Bacterial Biotransformation value was documented for this compound, CC(=O)OCC(=O)[C@@]1(O)[C@@H](C)C[C@H]2[C@@H]3CCC4=CC(=O)C=C[C@]4(C)[C@@]3(F)[C@@H](O)C[C@@]21C [BETAMETHASONE ACETATE] ?
Compound metabolized

---

assay: The drug is tested on Z-022 corresponding to mouse gut metagenome with ENA study accession number: PRJEB37062 and ENA sample accession number: ERS12561821 for biotransformation under anaerobic condition. The drug concentrations were measured over 9 timepoints collected between 0 and 24 hours of incubation by liquid-chromatography-coupled mass spectrometry (LC–MS); settings: 2 µM
measured_metric: Bacterial Biotransformation

Illustrative cases are given below, each with its answer.
CN(C)CCc1c[nH]c2ccc(Cn3cncn3)cc12.O=C(O)c1ccccc1 [RIZATRIPTAN BENZOATE] = Compound NOT metabolized
CC(C)N(CCC(C(N)=O)(c1ccccc1)c1ccccn1)C(C)C.O=P(O)(O)O (stereo not drawn) [DISOPYRAMIDE PHOSPHATE] = Compound NOT metabolized
NC(=O)N1c2ccccc2CC(=O)c2ccccc21 [OXCARBAZEPINE] = Compound metabolized
COC1=CC(=O)C[C@@H](C)[C@]12Oc1c(Cl)c(OC)cc(OC)c1C2=O = Compound metabolized
CCN(CC)CCOC(=O)C(Cc1cccc2ccccc12)CC1CCCO1.O=C(O)C(=O)O (stereo not drawn) [NAFRONYL OXALATE] = Compound metabolized
Cc1ccccc1N1C(=O)c2cc(S(N)(=O)=O)c(Cl)cc2NC1C (stereo not drawn) = Compound NOT metabolized
O=C(CCCN1CCC(O)(c2ccc(Cl)cc2)CC1)c1ccc(F)cc1 = Compound NOT metabolized

Field: next compound
What value of Bacterial Biotransformation has been recorded for this entry: CN(C)C(=O)C(CCN1CCC(O)(c2ccc(Cl)cc2)CC1)(c1ccccc1)c1ccccc1 [LOPERAMIDE]
Compound metabolized

---

conditions: human gut metagenome, 24 h, 2 µM
measured_metric: Bacterial Biotransformation

# example entries with known answers
CNC(=C[N+](=O)[O-])NCCSCc1ccc(CN(C)C)o1 = Compound NOT metabolized
OC(CCN1CCCCC1)(c1ccccc1)C1CCCCC1 (configuration not stated) = Compound metabolized
O=C1[C@H](CC[C@H](O)c2ccc(F)cc2)[C@@H](c2ccc(O)cc2)N1c1ccc(F)cc1 = Compound NOT metabolized
C[C@@H]1C[C@H]2[C@@H]3CCC4=CC(=O)C=C[C@]4(C)[C@@]3(F)[C@@H](O)C[C@]2(C)[C@@]1(O)C(=O)CO = Compound NOT metabolized
CCN(CC)CC#CCOC(=O)C(O)(c1ccccc1)C1CCCCC1.Cl (configuration not stated) [OXYBUTYNIN CHLORIDE] = Compound metabolized

Would you kindly share the measured Bacterial Biotransformation for O=C(Nc1ccccc1)OCC(CN1CCCCC1)OC(=O)Nc1ccccc1 (configuration not stated) ?
Compound metabolized

Given "CCc1nn(CCCN2CCN(c3cccc(Cl)c3)CC2)c(=O)n1CCOc1ccccc1" , state its recorded Bacterial Biotransformation.
Compound NOT metabolized

---

experiment: The drug is tested on Z-001 corresponding to mouse gut metagenome with ENA study accession number: PRJEB37062 and ENA sample accession number: ERS12561801 for biotransformation under anaerobic condition. The drug concentrations were measured over 9 timepoints collected between 0 and 24 hours of incubation by liquid-chromatography-coupled mass spectrometry (LC–MS); settings: 2 µM
measured_metric: Bacterial Biotransformation

CC(C)c1nc(CN(C)C(=O)N[C@H](C(=O)N[C@@H](Cc2ccccc2)C[C@H](O)[C@H](Cc2ccccc2)NC(=O)OCc2cncs2)C(C)C)cs1 = Compound NOT metabolized
CCN(CC)CCOC(=O)C(Cc1cccc2ccccc12)CC1CCCO1.O=C(O)C(=O)O (centres undefined) [NAFRONYL OXALATE] = Compound NOT metabolized
OC(Cn1cncn1)(Cn1cncn1)c1ccc(F)cc1F = Compound NOT metabolized

---

test: The drug is tested on Z-008 corresponding to metagenome with ENA study accession number: PRJEB37062 and ENA sample accession number: ERS12561808 for biotransformation under anaerobic condition. The drug concentrations were measured over 9 timepoints collected between 0 and 24 hours of incubation by liquid-chromatography-coupled mass spectrometry (LC–MS); settings: 2 µM
measured_metric: Bacterial Biotransformation

// known answers, use as guide
C=CCN1CC[C@]23c4c5ccc(O)c4O[C@H]2C(=O)CC[C@@]3(O)[C@H]1C5 = Compound NOT metabolized
Nc1ccc(/N=N/c2ccccc2)c(N)n1 = Compound metabolized
COCCc1ccc(OCC(O)CNC(C)C)cc1.COCCc1ccc(OCC(O)CNC(C)C)cc1.O=C(O)C(O)C(O)C(=O)O (stereo not drawn) [METOPROLOL TARTRATE] = Compound NOT metabolized
CC(C)N(CCC(C(N)=O)(c1ccccc1)c1ccccn1)C(C)C.O=P(O)(O)O (stereo not drawn) [DISOPYRAMIDE PHOSPHATE] = Compound NOT metabolized
CCCc1nc2c(C)cc(-c3nc4ccccc4n3C)cc2n1Cc1ccc(-c2ccccc2C(=O)O)cc1 = Compound metabolized
CCOc1ccc(NC(C)=O)cc1 = Compound NOT metabolized
CN1CCN(C(=O)O[C@H]2c3nccnc3C(=O)N2c2ccc(Cl)cn2)CC1 = Compound NOT metabolized

Please report the recorded Bacterial Biotransformation for CC(CN(C)C)CN1c2ccccc2CCc2ccccc21.O=C(O)/C=C\C(=O)O (stereo not drawn) [TRIMIPRAMINE MALEATE] .
Compound NOT metabolized
